Organism: Rattus norvegicus
method.notes: Open TG-GATES - Regimen: Daily Repeat
Format: toxicity, organism-based, Sprague-Dawley
Design: regimen Daily Repeat, gender Male, age 6 weeks
test.settings: in vivo, po, 0 mg/kg, […], tissue Plasma, route gavage, dose level Control, time 14 day
quantity: IP (mg/dL)
Just the number please, in mg/dL, no unit attached.

Problem: Item under review: CN(C/C=C/C#CC(C)(C)C)Cc1cccc2ccccc12 [TERBINAFINE] . Reported IP?
Solution: 7.2

Problem: If you can, please state the reported IP value of O=C(O)c1ccccc1Nc1ccccc1 [FENAMIC ACID] .
Solution: 7.1

Problem: Query: IP; subject: CCCCNC(=O)NS(=O)(=O)c1ccc(C)cc1 [TOLBUTAMIDE]
Solution: 7.1

Problem: // returns reported IP for input O=c1ccc2ccccc2o1 [COUMARIN]
Solution: 7.5

Problem: // IP lookup, key: CCCCC1C(=O)N(c2ccccc2)N(c2ccccc2)C1=O [PHENYLBUTAZONE]
Solution: 7.9

Problem: Value lookup for IP; key = CCN(CC)C(=S)SSC(=S)N(CC)CC
Solution: 7.4

Problem: Report IP for CC(S)C(=O)NCC(=O)O (stereo not drawn) [TIOPRONIN] please.
Solution: 6.9

Problem: Would you mind telling me what IP value was observed for CCO [ALCOHOL] ?
Solution: 7.3

Problem: Report IP for NS(=O)(=O)c1cc(C(=O)O)c(NCc2ccco2)cc1Cl [FUROSEMIDE] please.
Solution: 7.4

Problem: Recorded IP for CC(=O)[C@@]1(O)CC[C@H]2[C@@H]3C=C(Cl)C4=CC(=O)CC[C@]4(C)[C@H]3CC[C@@]21C [CHLORMADINONE] , please?
Solution: 6.6

Problem: Endpoint output: IP of CN(CCOc1ccc(CC2SC(=O)NC2=O)cc1)c1ccccn1.O=C(O)/C=C\C(=O)O (stereo not drawn) [ROSIGLITAZONE MALEATE] . Value?
Solution: 7.2

Problem: Reported IP, molecule COc1ccc([C@@H]2Sc3ccccc3N(CCN(C)C)C(=O)[C@@H]2OC(C)=O)cc1 [DILTIAZEM] : ____
Solution: 6.9

Problem: May I ask what IP has been recorded for Nc1ccc(Cc2ccc(N)cc2)cc1 ?
Solution: 6.3

====

Organism: Rattus norvegicus
method.notes: Open TG-GATES - Regimen: Daily Repeat
Assay type: toxicity, organism-based, Sprague-Dawley
Set-up: regimen Daily Repeat, gender Male, age 6 weeks
test.settings: in vivo, po, 300 mg/kg, […], tissue Liver, route gavage, dose level Middle, time 7 day
Record form. Attribute: LIVER. Fill in for each entry.

Problem: Form field: reported LIVER of O=C(O)c1ccccc1Nc1ccccc1 [FENAMIC ACID]
Solution: 13.4 g

Problem: Query: LIVER; subject: CC(S)C(=O)NCC(=O)O (centres undefined) [TIOPRONIN]
Solution: 12 g

Problem: What value of LIVER has been reported for the following compound? CCCCNC(=O)NS(=O)(=O)c1ccc(C)cc1 [TOLBUTAMIDE]
Solution: 12.4 g

Problem: Look at this compound and give its reported LIVER. CC(=O)[C@@]1(O)CC[C@H]2[C@@H]3C=C(Cl)C4=CC(=O)CC[C@]4(C)[C@H]3CC[C@@]21C [CHLORMADINONE]
Solution: 12.6 g
